Overview of recorded melting point for various compounds

Solved cases below.
{"compound": "CCC(=O)c1ccnc(OC)c1", "result": "38 °C"}
{"compound": "Clc1cccc2c1CNC2", "result": "48 to 50 °C"}
{"compound": "C=CCc1cc(C=C(C(=O)OCC)C(=O)OCC)ccc1OC", "result": "69 °C"}
{"compound": "CCCCCCCCCCOc1csc(-c2ccc(N)cc2)c1OCCCCCCCCCC", "result": "64.5 to 65.5 °C"}
{"compound": "CSCCOc1ccc(OCC(O)CO)cc1 (stereo not given)", "result": "59 to 61 °C"}
{"compound": "CCCCCCCCCCCc1nc2c(O)c(NC(C)=O)cc(Cl)c2cc1CCCCCCCCCC", "result": "120 to 121 °C"}
{"compound": "CC(C)CC(=O)Nc1cccc(-c2ccnc3c(-c4ccc5[nH]ccc5c4)cnn23)c1", "result": "167 to 169 °C"}
{"compound": "CCN(CC)C(=O)CCc1nc(-c2ccccc2)nc2ccc(Br)cc12", "result": "146 °C"}

Name the recorded melting point for Cc1cccc(C(=O)NC(Nc2c(Nc3cccnc3Cl)c(=O)c2=O)C(C)(C)Cc2ccccc2)c1 (stereo not given) .
234 to 235 °C

I have this compound here, CC(C)c1cccc(C(C)C)c1NC(=O)NCC1(O)CCc2ccccc21 (stereo not given) , and I need its recorded melting point.
173 to 174 °C

====

Quick reference for melting point among some compounds

{"compound": "O=C(Cn1c(-c2ccncc2)ncc(NC(=O)OCc2ccccc2)c1=O)NC(Cc1ccccc1)C(=O)C(F)(F)F (stereo not given)", "melting point": "182 to 185 °C"}
{"compound": "Cn1nc(-c2ccc(Cl)cc2)nc1-c1cccnc1", "melting point": "157 to 158 °C"}
{"compound": "CCOc1ccc2c(ccn2C)c1O", "melting point": "69 to 70 °C"}
{"compound": "CCOC(=O)[C@@H](Cc1ccc2ccc(C#N)cc2c1)c1ccc(O[C@H]2CCN(Cc3ccccc3)C2)cc1", "melting point": "95 to 95.5 °C"}
{"compound": "O=C(O)CC[C@H](NCC(O)C(O)C(O)C(O)CO)C(=O)O (stereo not given in full)", "melting point": "94 °C"}
{"compound": "CC1(O)CSC(=S)N1c1ccc(Cl)cn1 (stereo not given)", "melting point": "95 °C"}

What does the record list as melting point for CCOC(=O)/C=C/c1ccc(OC(C)C)nc1Oc1ccc(Cl)cc1Cl ?
92 to 93 °C

What does the record list as melting point for CC(C)CC(=O)N[C@H]1CC[C@H](CCN2CCC(c3cccc4c3CCO4)CC2)CC1 ?
197 °C

Could you share which melting point value was measured for Cc1nc2cnc3ccccc3c2n1CC(C)O (stereo not given) ?
176 to 177 °C

Given the compound CC(C)[Si](C)(C)CCCSCCCNC(=O)n1cc(F)c(=O)[nH]c1=O , what is its reported melting point?
101 to 102 °C

====

measuredMetric: melting point

{"molecule": "CC(CCc1cc2cccnc2n(-c2cccc([N+](=O)[O-])c2)c1=O)c1ccncc1 (stereo unspecified)", "measuredMetric": "melting point", "result": "154 to 155 °C"}
{"molecule": "c1ccc(Cn2ccc3ccccc32)cc1", "measuredMetric": "melting point", "result": "43 to 45 °C"}
{"molecule": "Clc1ccc2[nH]nc(I)c2c1", "measuredMetric": "melting point", "result": "198 to 199 °C"}
{"molecule": "Cc1c(C(=O)N[C@H](C)[C@](O)(Cn2cncn2)c2ccc(F)cc2F)cnn1-c1cccc(C(F)(F)F)c1", "measuredMetric": "melting point", "result": "146 to 147 °C"}
{"molecule": "CS(=O)(=O)c1ccc(-c2oc(CO)nc2-c2ccc(F)cc2)cc1", "measuredMetric": "melting point", "result": "156 to 157 °C"}
{"molecule": "O=C(CSc1ccccc1)c1ccc2[nH]c3ncc(Cl)cc3c2c1", "measuredMetric": "melting point", "result": "238 to 239 °C"}
{"molecule": "Cc1ccc(SCC2=NOCN2)cc1", "measuredMetric": "melting point", "result": "85 °C"}
{"molecule": "CCC1Cc2c(C)ccc(NNC(=O)OC)c2O1 (stereo unspecified)", "measuredMetric": "melting point", "result": "98 to 100 °C"}

Give its melting point value. Item: O=C(O)CSc1cc(-c2ccccc2)nc2ccccc12
138 °C

Requested read-out: melting point. Entry: Nc1ccccc1NS(=O)(=O)c1ccc([N+](=O)[O-])cc1
190 to 191 °C

Consider the molecule COc1ccc(Cn2cnc3c(-c4ccco4)nc(N(C)C)nc32)cc1 and give its measured melting point.
163 to 164 °C
